# testDetails: in vitro
# assayConditions: PAMPA
measuredQuantity: Papp (×10⁻⁶ cm/s)
Output spec: scalar in ×10⁻⁶ cm/s, unitless text.

(Q) Which Papp is reported for this compound? COc1ccc(CCN2CCC(Nc3nc4ccccc4n3Cc3ccc(F)cc3)CC2)cc1 [Astemizole]
(A) 147

###

# Papp per record follows
# testDetails: Parallel Artificial Membrane Permeability assay (PAMPA)
Write down the numeric answer in ×10⁻⁶ cm/s and omit the unit.

compound | measuredQuantity | resultNumber
CCCC(C)C1(CC)C(=O)NC(=S)NC1=O (centres unmarked) | Papp | 17

Continue with the compound presented below.
(Q) I am curious: what Papp value has been reported for C[N+]12CCC(CC1)C(OC(=O)C(O)(c1ccccc1)c1ccccc1)C2 (centres unmarked) [Clidinium Bromide] ?
(A) 0.029

Provenance of the data: patent US8916132B2
